Please go through the items and note down their Normalized root mass (relative to DMSO control).
System: tomato plants
Assay: Root mass of tomato plants in the infectivity assays
Type: in vivo, Solanum lycopersicum
Conditions: 45 μM
One number for each entry.

As a guide, the following entries are already answered.
Report measured Normalized root mass (relative to DMSO control); entry is Cc1csc2nc(-c3ccc(Cl)cc3)cn12
1.3

Report measured Normalized root mass (relative to DMSO control); entry is Clc1ccc(-c2cn3ccsc3n2)cc1
1.3

Hi there! I need Normalized root mass (relative to DMSO control) for each item below, if you can.
1. Cc1csc2nc(-c3ccc(Br)cc3)cn12
2. c1ccc(-c2noc(-c3cccs3)n2)cc1 [tioxazafen, reference compound]

1.4
1.1

Hi there! I need Normalized root mass (relative to DMSO control) for each item below, if you can.
1. Cc1cn2cc(-c3ccc(Cl)cc3)nc2s1
2. Cc1cn2cc(-c3ccc(Br)cc3)nc2s1
3. Cc1csc2nc(-c3ccc(F)cc3)cn12
4. Cc1cn2cc(-c3ccc(I)cc3)nc2s1

1. 1.4
2. 1.1
3. 1.0
4. 1.3

These entries and their values trace back to patent US20220264883A1.
